- tgt: human prostanoid FP receptor (Homo sapiens, UniProt P43088)
- Construct: expressed in transfected cells
- Sequence (P43088 whole entry): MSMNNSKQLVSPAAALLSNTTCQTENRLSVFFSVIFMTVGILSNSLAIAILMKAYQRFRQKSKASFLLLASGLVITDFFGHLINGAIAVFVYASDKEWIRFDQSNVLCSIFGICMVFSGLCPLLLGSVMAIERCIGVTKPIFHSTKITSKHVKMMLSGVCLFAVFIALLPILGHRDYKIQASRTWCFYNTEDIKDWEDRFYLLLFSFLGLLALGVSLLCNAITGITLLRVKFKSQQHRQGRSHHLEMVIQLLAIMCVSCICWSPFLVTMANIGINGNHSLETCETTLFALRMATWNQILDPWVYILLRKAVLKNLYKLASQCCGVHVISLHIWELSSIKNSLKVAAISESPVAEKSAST
- experimental details: FLIPR Ca2+ signaling antagonist assay, FP receptor stable cell line
- Type: cell-based
- condition notes: human recombinant FP in HEK-293 EBNA cells; standard agonist 17-phenyl-PGF2a; NA = no antagonism or Kb>=10,000 nM
readout label: Kb (nM)

| compound | value units | Kb |
| --- | --- | --- |
| CC(C)Cn1ncc2cc(Cl)cc(Cn3ncc4cc(C(=O)O)ccc43)c21 | nM | 70 |

1 = CC(C)Cn1ncc2cc(Cl)cc(Cn3ccc4cc(C(=O)O)cnc43)c21
2 = CC(C)Cn1ncc2cc(Cl)cc(Cn3ncc4cc(C(=O)O)cnc43)c21
Exam item: Kindly identify the item with the lower Kb figure among these two: 1 and 2 Could you answer with the label of the item you picked?
Marked response: 1

a = CC(C)Cn1ncc2cc(Cl)cc(Cc3ncc4cc(C(=O)O)ccn34)c21
b = CC(C)Cn1ncc2cc(OC(F)(F)F)cc(Cn3ncc4cc(C(=O)O)ccc43)c21
Exam item: Would you let me know which has the greater Kb value, a or b ? Could you answer with the label of the item you picked?
Marked response: a
(a: 600 nM, b: 80 nM)
